Experiment: qHTS of pediatric cancer cell lines to identify multiple opportunities for drug repurposing: Primary screen for A673 cells (AID 1347092); also: nearly all actives have a fitted effect of over 45% in size
Conditions: A673 Ewing sarcoma viability, CellTiter-Glo ATP luminescence, 48 h; series mostly up to 46 µM
Results filed as inconclusive are left out. Calls of active or inactive are those of the source. Calls follow the shape of the dose curve; as a rule, active = well fitted cell-killing curve with a large enough effect; inconclusive = small, poorly fitted or top-dose-only effect; inactive = no such curve, though single readings can be large or run the other way.
Assign a class; possible classes are class 1 = active, class 0 = inactive

Name the outcome recorded for O=C1NS(=O)(=O)c2ccccc21 in the assay.
class 0

Per the assay record, what outcome was assigned to CC1(C)Oc2ccc(C#N)cc2[C@@H](N2CCCC2=O)[C@@H]1O ?
class 0

Dear all, I need the recorded test outcome for OCCN1CCN(CCCN2c3ccccc3Sc3ccc(Cl)cc32)CC1 , thank you.
class 1

Name the outcome recorded for Cc1ncc([N+](=O)[O-])n1CC(O)CCl (configuration not stated) in the assay.
class 0

Record request — test call for O=c1cc[nH]c(=S)[nH]1
class 1

Dear colleague, could you share the recorded outcome for CC(=O)Oc1ccc(C2(c3ccc(OC(C)=O)cc3)C(=O)Nc3ccccc32)cc1 when you have a moment?
class 0

Record lookup: outcome of this test for NS(=O)(=O)c1cc2c(cc1Cl)NC(CSCc1ccccc1)=NS2(=O)=O ?
class 0

Given Cc1cccc(Nc2cc(Cl)nc(SCC(=O)O)n2)c1C , state the outcome it received in this test.
class 0

Outcome logged for C[C@]12CC[C@@H]3c4ccc(O)cc4CC[C@H]3[C@@H]1CC[C@@H]2OC(=O)CCC1CCCC1 in this assay:
class 0

I'd appreciate the recorded outcome for Cc1ccc(C(C)C)cc2c(C)ccc1-2 from this test.
class 0

Check the results log: what was the call for CC(O)CN(CCN(CC(C)O)CC(C)O)CC(C)O (configuration not stated) ?
class 0

Tell me the recorded outcome of this test for NC(=O)NNc1ccccc1 .
class 0
